# Tested on: MDA-MB-468 breast
# Protocol Description: NCI-60 one-dose screen, 48 h (100 = growth as untreated, 0 = no growth, -100 = all killed)
# Condition Details: 10 µM unless noted
The panel holds about 83,000 compounds, 20% with a hit somewhere; the sample as a whole holds those more often.
Property: growth (%)
Numbers only, in %.

# map each compound to its growth
1. Nc1c(N)c2ccccc2c2ccccc12
2. O=C1NC(=S)NC(=O)C1=Cc1cccc(C=C2C(=O)NC(=S)NC2=O)c1
3. COc1cc(/C=C/C(=O)c2cccc(-n3cc(-c4cc(OC)c(OC)c(OC)c4)[nH]c3=O)c2)cc(OC)c1OC

Result:
1. 103
2. 103
3. 27.7

# map each compound to its growth
1. O=C(NCc1cccnc1)c1ccc([N+](=O)[O-])o1
2. O=C(/C=C/c1ccc(F)cc1)c1ccc(NC(=O)N2CCN(c3cc4c(cc3F)c(=O)c(C(=O)O)cn4C3CC3)CC2)cc1
3. O=c1cc(CSc2nnc(SCc3cc(=O)oc4c3ccc3ccccc34)o2)c2ccc3ccccc3c2o1
4. N#C/C(=C/c1ccc(O)c([N+](=O)[O-])c1)c1nc(-c2ccc([N+](=O)[O-])cc2)cs1
5. COc1ccc(N2CCN(c3ccc(NC4=C(Cl)C(=O)c5ncccc5C4=O)cc3)CC2)cc1
6. c1ccc2c(-c3nccs3)c[nH]c2c1
7. COc1cc(OC)c(/C=C/C(=O)c2c(OC)cc(OC)cc2OC)c(OC)c1
8. C=CCOc1ccc2c(c1)CC=C1[C@@H]2CC[C@]2(C)C(=O)/C(=N/O)C[C@@H]12

Result:
[69.5, 68.3, 110, 14.3, -53.9, 91.3, 14, 55.7]

# map each compound to its growth
1. O=C1CC(=O)N(c2ccccc2)O1
2. CCn1nc(-c2ccc(C(=O)OC)cc2)nc2c(=O)n(C)c(=O)nc1-2
3. N#Cc1c(N)[nH]c(S)c1C#N
4. CC(C)CCC[C@@H](C)[C@H]1CCC2C3=CCn4c(=O)ccc(=O)n4C3CC[C@@]21C (stereo not given in full)

Result:
105
82
103
-49
